The reported numbers originate from patent US20120251547A1.

assaySystem: T1, huIL-17RA-FLAG-polyHis (human, UniProt Q96F46 33-320)
T1 construct: also called IL-17RA-FLAG-pHis; wild-type IL-17RA
test: binning; IL-17RA held by bead mAb P
Quick rule for you: normalized MFI at 2000 or higher means label 1, lower means label 0.

Hello, I need to know if AMH16/AML16 (antibody, IgG2, V domains shown, human mAb from IgG2 XenoMouse mice; also called AM-16; antibody O) VH: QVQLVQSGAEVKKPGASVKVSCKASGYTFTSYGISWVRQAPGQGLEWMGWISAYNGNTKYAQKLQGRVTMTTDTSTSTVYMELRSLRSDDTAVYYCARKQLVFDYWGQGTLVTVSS VL: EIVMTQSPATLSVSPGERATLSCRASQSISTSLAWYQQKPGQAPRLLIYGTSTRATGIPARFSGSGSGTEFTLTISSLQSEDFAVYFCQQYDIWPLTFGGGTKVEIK has measured normalized MFI not below 2000. Thanks! label 1

Confirm if normalized MFI reported for the binder AMH11/AML11 (antibody, IgG2, V domains shown, human mAb from IgG2 XenoMouse mice; also called AM-11; antibody A) VH: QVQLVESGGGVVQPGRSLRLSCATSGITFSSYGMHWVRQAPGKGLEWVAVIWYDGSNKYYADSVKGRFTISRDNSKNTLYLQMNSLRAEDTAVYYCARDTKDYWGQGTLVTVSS VL: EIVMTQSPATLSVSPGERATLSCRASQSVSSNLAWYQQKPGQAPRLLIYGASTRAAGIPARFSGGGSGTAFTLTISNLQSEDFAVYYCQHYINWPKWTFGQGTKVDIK is 2000 or above. label 1

Evaluate AMH8/AML8 (antibody, IgG2, V domains shown, human mAb from IgG2 XenoMouse mice; also called AM-8; antibody C) VH: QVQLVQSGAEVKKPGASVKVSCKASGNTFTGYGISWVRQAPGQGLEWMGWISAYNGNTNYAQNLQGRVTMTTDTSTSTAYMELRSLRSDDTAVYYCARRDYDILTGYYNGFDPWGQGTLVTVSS VL: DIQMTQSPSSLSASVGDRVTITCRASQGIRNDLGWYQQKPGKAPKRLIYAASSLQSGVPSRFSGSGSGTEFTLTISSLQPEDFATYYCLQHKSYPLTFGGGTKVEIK : normalized MFI at minimum 2000? label 1

Decide: is the reported value of normalized MFI for AMH12/AML12 (antibody, IgG2, V domains shown, human mAb from IgG2 XenoMouse mice; also called AM-12; antibody M) VH: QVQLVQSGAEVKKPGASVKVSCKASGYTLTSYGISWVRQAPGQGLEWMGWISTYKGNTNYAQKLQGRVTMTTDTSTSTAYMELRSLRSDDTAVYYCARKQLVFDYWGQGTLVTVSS VL: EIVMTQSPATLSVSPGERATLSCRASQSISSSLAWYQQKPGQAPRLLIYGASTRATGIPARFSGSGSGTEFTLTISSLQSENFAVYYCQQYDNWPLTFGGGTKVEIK equal to or greater than 2000? label 0
